Numbers sourced from patent US11078170B2.

Catalogue of compounds with associated EC50
- Test system: HBV viral production from HepAD38 cells
- ASSAY: Activity of test compounds on viral production from HepAD38 cells (viral load by qPCR of HBV core sequence in supernatant)
- Format: cell-based
- STUDY_CONDITIONS: Hepatitis B virus, 120 h, 5 days incubation, HBV DNA in supernatant by qPCR, top concentration 10 μM, read-out: Viral Load EC50 Activity range

[[record]]
compound = "[2H]C1[C@]([2H])(c2ccc(-c3cn(C([2H])([2H])[2H])cn3)s2)NS(=O)(=O)N(C)[C@]1([2H])C(=O)Nc1ccc(F)c(Cl)c1 (stereo in doubt)"
reported_result = "< 1000 nM"

[[record]]
compound = "Cc1sc(C2CC(C(=O)Nc3ccc(F)c(Cl)c3)N(C)S(=O)(=O)N2)cc1-c1cnn(C)c1 (racemic)"
reported_result = "< 1000 nM"

[[record]]
compound = "CN1[C@@H](C(=O)Nc2ccc(F)c(Cl)c2)C[C@@H](c2ccc(OCC(=O)O)cc2)NS1(=O)=O"
reported_result = "> 5000 nM"

[[record]]
compound = "CN1[C@H](C(=O)Nc2ccc(F)c(Cl)c2)C[C@H](c2ncc(-c3ccc(NS(C)(=O)=O)cc3)s2)NS1(=O)=O"
reported_result = "< 1000 nM"

[[record]]
compound = "CN1C(C(=O)Nc2ccc(F)c(Br)c2)CC(c2ccc(Br)s2)NS1(=O)=O (stereo not drawn)"
reported_result = "< 1000 nM"

[[record]]
compound = "CN1C(C(=O)Nc2ccc(F)c(Cl)c2)CC(c2ccc(Br)cc2)NS1(=O)=O (stereo not drawn)"
reported_result = "< 1000 nM"

[[record]]
compound = "CN1C(C(=O)Nc2ccc(F)c(C#N)c2)CC(c2cccs2)NS1(=O)=O (racemic)"
reported_result = "< 1000 nM"

[[record]]
compound = "CN1[C@H](C(=O)Nc2ccc(F)c(Cl)c2)C[C@H](c2ncc(Br)s2)NS1(=O)=O"
reported_result = "< 1000 nM"

[[record]]
compound = "CN1C(C(=O)Nc2ccc(F)c(Cl)c2)CC(c2ccc(-c3ncn(C)n3)s2)NS1(=O)=O (racemic)"
reported_result = "< 1000 nM"

[[record]]
compound = "COCCN1[C@@H](C(=O)Nc2ccc(F)c(Cl)c2)C[C@@H](c2nccs2)NS1(=O)=O"
reported_result = "> 5000 nM"


// query Name the recorded EC50 of the compound listed here: [2H]C1C([2H])(c2ccc(-c3cn(C([2H])([2H])[2H])cn3)s2)NS(=O)(=O)N(C)C1([2H])C(=O)Nc1ccc(F)c(Cl)c1 (stereo not drawn)
// result < 1000 nM

// query Please give the documented EC50 of `CN1[C@H](C(=O)Nc2ccc(F)c(Cl)c2)C[C@H](c2ncc(-c3cncn3C)s2)NS1(=O)=O`
// result < 1000 nM
